The reported measurements were obtained from PubChem BioAssay.

Please respond with reported inhibition for every item in the list.
test: growth suppression of yeast trafficking mutant, preliminary HTS, modulators of trafficking downstream of Golgi apparatus project, 1536-format plate, OD 615 nm (AID 637); conditions: yeast transport mutant growth, absorbance 615 nm, 18 h; active compounds read high; also: test concentration not given here
One number for each entry, in %.

As a guide, the following entries are already answered.
>  <molecule>
c1coc(Cn2nnnc2CN2CCN(C3CCCC3)CC2)c1

>  <inhibition, %>
-8.41

$$$$
>  <molecule>
CN1/C(=C\C(=O)C(F)F)C(C)(C)c2ccccc21

>  <inhibition, %>
1.77

$$$$

Record inhibition for all entries; do not skip any.
1. CCOc1ccccc1NC(=O)NC1CCN(CC(=O)Nc2ccc3c(c2)OCCO3)CC1
2. CCCNS(=O)(=O)c1ccc(C(=O)NCC2CCCO2)cc1 (centres undefined)

[out]
1: 7.54; 2: 0.16
